Source listed as patent US9241947B2.

biological target: OXA-48 (Klebsiella pneumoniae)
Sequence (Q6XEC0 23-265 limits assumed): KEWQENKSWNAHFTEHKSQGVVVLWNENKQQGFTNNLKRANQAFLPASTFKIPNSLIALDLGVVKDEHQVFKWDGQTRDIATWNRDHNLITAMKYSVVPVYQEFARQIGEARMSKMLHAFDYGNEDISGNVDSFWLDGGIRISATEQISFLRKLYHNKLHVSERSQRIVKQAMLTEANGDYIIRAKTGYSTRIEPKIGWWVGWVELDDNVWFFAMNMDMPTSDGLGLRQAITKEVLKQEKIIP
reportedProperty: Ki

# smilesString, recordedMeasurement
rows = [
    ("O=C(O)c1cccc2c1OB(O)[C@@H](Sc1nnc[nH]1)C2", "0.01 to 0.1 µM"),
    ("CC(=O)Nc1nnc(S[C@H]2Cc3cccc(C(=O)O)c3OB2O)s1", "< 0.01 µM"),
    ("Nc1nnc(S[C@H]2Cc3cccc(C(=O)O)c3OB2O)s1", "< 0.01 µM"),
    ("NC(=O)CS[C@H]1Cc2cccc(C(=O)O)c2OB1O", "< 0.01 µM"),
]

We now examine a further compound.
Record "NC(=O)CCS[C@H]1Cc2cccc(C(=O)O)c2OB1O" , field Ki: 0.01 to 0.1 µM
